Numbers sourced from patent US11219625B2.

- System: HEK293 cells
- assay.overview: Celltiter Glo viability assay, HEK293
- Format: cell-based
- setup.conditions: HEK293 EC50 over NLG AC40
Property: Selectivity (EC50/AC40); scope: individual molecules

Use the examples below as a reference point.
Cc1ccc(NC(=O)c2cc(S(=O)(=O)N(C)C)ccc2N2CCCC2)cc1: >25.0
COc1ccc2nc(NC(=O)c3cc(S(=O)(=O)N(C)C)ccc3N3CCCC3)sc2c1: >2.3
COc1ccc(NC(=O)c2cc(S(=O)(=O)N(C)C)ccc2N2CCCC2)cc1: >2.9
Cc1cnc(NC(=O)c2cc(S(=O)(=O)N(C)C)ccc2N2CCCC2)s1: >172
CN(C)S(=O)(=O)c1ccc(N2CCCC2)c(C(=O)Nc2ccccc2)c1: >27.8

Please give the documented Selectivity (EC50/AC40) of `CN(C)S(=O)(=O)c1ccc(N2CCCC2)c(C(=O)Nc2cccc(F)c2)c1` >11.5

====

Property: EC50 at 72 h; scope: individual compounds
- assay.overview: Celltiter Glo viability assay, HEK293
- Assay type: cell-based
- setup.conditions: human, HEK293 cells; HEK293, 72 h of compound exposure; read-out: Cytotoxicity Assay Mean EC50

Use the examples below as a reference point.
Cc1ccccc1NC(=O)c1cc(S(=O)(=O)N(C)C)ccc1N1CCCC1 [Entry 13]: > 30 µM
CN(C)S(=O)(=O)c1ccc(N2CCCC2)c(C(=O)Nc2ccccc2F)c1 [Entry 17]: > 30 µM
Cc1cnc(NC(=O)c2cc(S(=O)(=O)N(C)C)ccc2N2CCCC2)s1 [NGI-1]: > 30 µM
CN(C)S(=O)(=O)c1ccc(N2CCCC2)c(C(=O)Nc2ccc(Br)cc2)c1 [Entry 20]: > 30 µM

Please give the documented EC50 at 72 h of COc1ccccc1NC(=O)c1cc(S(=O)(=O)N(C)C)ccc1N1CCCC1 [Entry 15] > 30 µM

====

- assay.overview: Celltiter Glo viability assay, HEK293
- Assay type: cell-based
- setup.conditions: human, HEK293 cells; HEK293, 72 h of compound exposure; read-out: Cytotoxicity Assay Mean EC50
- Description: The HTS approach using the bioluminescent N-linked glycosylation reporter (CCR 2011) in D54-ERLucT and D54-LucT cells has been previously described (Bennett, et al., Transl Oncol 2013, 6, 382-391). Briefly, the primary cell-based screen detects site occupancy of NLG sequons using a modified luciferase protein translated into the ER. […]
Property: EC50 at 72 h; scope: individual compounds

Cc1ccc(NC(=O)c2cc(S(=O)(=O)N(C)C)ccc2N2CCCC2)cc1: > 30 µM
CN(C)S(=O)(=O)c1ccc(N2CCCC2)c(C(=O)Nc2ccncc2)c1: > 30 µM
CN(C)S(=O)(=O)c1ccc(N2CCCC2)c(C(=O)Nc2ccccc2Cl)c1: > 30 µM
COc1ccc2nc(NC(=O)c3cc(S(=O)(=O)N(C)C)ccc3N3CCCC3)sc2c1: > 30 µM
CN(C)S(=O)(=O)c1ccc(N2CCCC2)c(C(=O)Nc2cccnc2)c1: > 30 µM
COc1ccc(NC(=O)c2cc(S(=O)(=O)N(C)C)ccc2N2CCCC2)cc1: > 30 µM

Please give the documented EC50 at 72 h of `CN(C)S(=O)(=O)c1ccc(N2CCCC2)c(C(=O)N2CCOCC2)c1` > 30 µM

Please give the documented EC50 at 72 h of `CN(C)S(=O)(=O)c1ccc(N2CCCC2)c(C(=O)NC2CCCCC2)c1` > 30 µM

Please give the documented EC50 at 72 h of `CN(C)S(=O)(=O)c1ccc(N2CCCC2)c(C(=O)Nc2cccc(F)c2)c1` > 30 µM

Please give the documented EC50 at 72 h of `CN(C)S(=O)(=O)c1ccc(N2CCCC2)c(C(=O)Nc2ccccc2)c1` > 30 µM

Please give the documented EC50 at 72 h of `CN(C)C(=O)c1cc(S(=O)(=O)N(C)C)ccc1N1CCCC1` > 30 µM
